Recorded MIC, one value per entry.
Tested on: Rhizopus arrhizus
assay-summary: Antifungal activity against Rhizopus oryzae NBRC 31005 after 24 hrs by broth microdilution method
Type: functional
run-parameters: NBRC 31005, 24 h

molecule	MIC
N=C(N)c1ccc(OCCCC2CCN(CCCOc3ccc(C(=N)N)cc3)CC2)cc1	> 64 µg/mL
C[C@@H]1[C@H](O)[C@@H](C)/C=C/C=C/C=C/C=C/C=C/C=C/C=C/[C@H](O[C@@H]2O[C@H](C)[C@@H](O)[C@H](N)[C@@H]2O)C[C@@H]2O[C@](O)(C[C@@H](O)C[C@@H](O)[C@H](O)CC[C@@H](O)C[C@@H](O)CC(=O)O[C@H]1C)C[C@H](O)[C@H]2C(=O)O [AMPHOTERICIN B]	1 µg/mL
C[C@@H](c1ncncc1F)[C@](O)(Cn1cncn1)c1ccc(F)cc1F [VORICONAZOLE]	8 µg/mL

---

Test system: Candida dubliniensis
assay-summary: Antifungal activity against Candida dubliniensis ATCC MYA-577 after 48 hrs by broth microdilution method
Type: functional
run-parameters: ATCC MYA-577, 48 h
Starred links: 1 amine or outer side, 2 acyl side, 3 side chain; linkers in the order of their positions; H or OH if unused. Positions of bridges follow the written chain, without caps; N, C: chain ends. Non-standard residues stand in square brackets, D forms with d. Residues, ends and D or L forms follow the SMILES beside them. *: point of attachment. hTyr(3S-OH,4S-OH,3'-OSO3H) = N[C@H](C(=O)O)[C@H](O)[C@@H](O)c1ccc(O)c(OS(=O)(=O)O)c1; Orn(4R-OH,5R-OH) = O=C([C@H](C[C@@H](O)[C@@H](O)N[*:3])N[*:1])[*:2]; Pro(3S-OH,4S-Me) = C[C@H]1CN[C@H](C(=O)O)[C@H]1O; X1 = CCCCCOc1ccc(-c2cc(-c3ccc(C(=O)*)cc3)no2)cc1; Gln(3R-OH) = NC(=O)C[C@@H](O)[C@H](N)C(=O)O; Hyp = O=C(O)[C@@H]1C[C@@H](O)CN1
Recorded MIC, one value per entry.
measurement-type: MIC (µg/mL)

compound	target-of-assay	recorded-value
C[C@@H](c1ncncc1F)[C@](O)(Cn1cncn1)c1ccc(F)cc1F	Candida dubliniensis	0.0078
CCCCCOc1ccc(-c2cc(-c3ccc(C(=O)N[C@H]4C[C@@H](O)[C@@H](O)NC(=O)[C@@H]5[C@@H](O)[C@@H](C)CN5C(=O)[C@H]([C@H](O)CC(N)=O)NC(=O)[C@H]([C@H](O)[C@@H](O)c5ccc(O)c(OS(=O)(=O)O)c5)NC(=O)[C@@H]5C[C@@H](O)CN5C(=O)[C@H]([C@@H](C)O)NC4=O)cc3)no2)cc1 [MICAFUNGIN] (X1-[Orn(4R-OH,5R-OH)]T[Hyp][hTyr(3S-OH,4S-OH,3'-OSO3H)][Gln(3R-OH)][Pro(3S-OH,4S-Me)]; lactam 1-C)	Candida dubliniensis	0.125
OC(Cn1cncn1)(Cn1cncn1)c1ccc(F)cc1F	Candida dubliniensis	0.125
N=C(N)c1ccc(OCCCC2CCN(CCCOc3ccc(C(=N)N)cc3)CC2)cc1	Candida dubliniensis	0.001
C[C@@H]1[C@H](O)[C@@H](C)/C=C/C=C/C=C/C=C/C=C/C=C/C=C/[C@H](O[C@@H]2O[C@H](C)[C@@H](O)[C@H](N)[C@@H]2O)C[C@@H]2O[C@](O)(C[C@@H](O)C[C@@H](O)[C@H](O)CC[C@@H](O)C[C@@H](O)CC(=O)O[C@H]1C)C[C@H](O)[C@H]2C(=O)O	Candida dubliniensis	1
